Molecular target: T1, mouse MAdCAM expressed on cells (mouse, UniProt Q61826 22-405)
T1 construct: whole, on cells
T1 sequence (looked up): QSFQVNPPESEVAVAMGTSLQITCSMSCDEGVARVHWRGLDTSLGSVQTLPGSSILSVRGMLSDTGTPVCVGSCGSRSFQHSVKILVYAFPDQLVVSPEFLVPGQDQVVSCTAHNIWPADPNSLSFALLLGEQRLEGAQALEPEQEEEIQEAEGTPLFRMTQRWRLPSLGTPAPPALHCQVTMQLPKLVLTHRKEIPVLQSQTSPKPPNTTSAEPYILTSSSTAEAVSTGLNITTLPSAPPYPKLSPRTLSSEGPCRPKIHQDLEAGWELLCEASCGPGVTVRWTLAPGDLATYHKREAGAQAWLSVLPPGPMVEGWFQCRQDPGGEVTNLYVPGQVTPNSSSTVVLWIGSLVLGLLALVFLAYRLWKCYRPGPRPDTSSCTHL
Assay: cell binding

{"BINDER": "MAdCAM antibody Clone ID 41 of Table 7 (IgG) (antibody, V domains shown, IgG format) VH: QVQLVQSGAEVKKPGASVKVSCKASGYTFTSYYMHWVRQAPGQGLEWMGIINPSGGSTSYAQKFQGRVTMTRDTSTSTVYMELSSLRSEDTAVYYCARDTGYSYGRYYYYGMDVWGQGTLVTVSS VL: DIQMTQSPSSLSASVGDRVTITCRASQSIGRWLAWYQQKPGKAPKLLIYDASNLQSGVPSRFSGSGSGTDFTLTISSLQPEDFATYYCQQSYSIPITFGQGTKVEIK", "binding result": "no binding"}
{"BINDER": "MAdCAM antibody Clone ID 1 of Table 7 (IgG) (antibody, V domains shown, IgG format) VH: EVQLLESGGGLVQPGGSLRLSCAASGFTFSSYGMHWVRQAPGKGLEWVAVISDDGSDKYYADSVKGRFTISRDNSKNTLYLQMNSLRAEDTAVYYCTTSKYYYYYGMDVWGQGTTVTVSS VL: DIQMTQSPSSLSASVGDRVTITCQASQDISKSLNWYQQKPGKAPKLLIYAASSLQSGVPSRFSGSGSGTDFTLTISSLQPEDFATYYCQQGYSTPLTFGGGTKVEIK", "binding result": "binds"}
{"BINDER": "MAdCAM antibody Clone ID 12 of Table 7 (IgG) (antibody, V domains shown, IgG format) VH: QVQLVQSGAEVKKPGASVKVSCKASGYTLTTWYMYWVRQAPGQGLEWMGWINPNRGATNYAQKFQGRVTMTRDTSTSTVYMELSSLRSEDTAVYYCAKGDLWGAMDVWGQGTLVTVSS VL: DIQMTQSPSSLSASVGDRVTITCRASDNIGSWLAWYQQKPGKAPKLLIYAASSLQSGVPSRFSGSGSGTDFTLTISSLQPEDFATYYCQQGYSTPPTFGQGTKVEIK", "binding result": "no binding"}
